Origin of measurements: PubChem BioAssay (Tox21)

ASSAY_NOTES: qHTS assay for small molecule activators of the heat shock response signaling pathway - cell viability counter screen (AID 743209); further: on the % scale 0 is the no-effect control and ±100 the full control effect; nearly all actives have a fitted effect of over 50% in size
ASSAY_CONDITIONS: HSE-bla HeLa viability, CellTiter-Glo luminescence, 5 h; series mostly up to 62.6 µM
Records with an inconclusive call do not appear. Calls of active or inactive are those of the source. The call rests on the fitted dose curve; in most records, active means well fitted cell-killing curve with a large enough effect in the repeat runs; inconclusive means weak or mixed curves, or effect the other way; inactive means no such curve, though single readings can be large or run the other way.
VALUE_KIND: activity change, negative = cytotoxicity

compound=O=C1CCCC(=O)C1 value_kind="activity change, negative = cytotoxicity" value=inactive
compound=O=C(O)CNC(=O)c1ccc([N+](=O)[O-])cc1 value_kind="activity change, negative = cytotoxicity" value=inactive
compound=NC(=O)c1ccc([N+](=O)[O-])cc1 value_kind="activity change, negative = cytotoxicity" value=inactive
compound=C=C1CC[C@H]2C[C@@H]1C2(C)C value_kind="activity change, negative = cytotoxicity" value=inactive
compound=CCN1CCC[C@H]1CNC(=O)c1c(O)c(Cl)cc(Cl)c1OC value_kind="activity change, negative = cytotoxicity" value=inactive
compound=CCS(=O)(=O)c1ccc(OC)c(C(=O)OC)c1 value_kind="activity change, negative = cytotoxicity" value=inactive
compound=CCCCNC(=O)NCCCC value_kind="activity change, negative = cytotoxicity" value=inactive
compound=NCCCNCCSP(=O)(O)O value_kind="activity change, negative = cytotoxicity" value="4.97% [at 13.2 µM] (inactive)"
compound=CCOC(=O)c1ccc(C)cc1 value_kind="activity change, negative = cytotoxicity" value=inactive
compound=N[C@@H](C(=O)N[C@@H]1C(=O)N2C(C(=O)O)=C(Cl)CS[C@H]12)c1ccccc1 value_kind="activity change, negative = cytotoxicity" value="-29.5% [at 13.2 µM] (inactive)"

Please give the documented activity change, negative = cytotoxicity of `CCCCCCCCCCCCN(CCCCCCCCCCCC)CCCCCCCCCCCC` inactive

Please give the documented activity change, negative = cytotoxicity of `Cn1c(N)c(N=O)c(=O)n(C)c1=O` inactive

Please give the documented activity change, negative = cytotoxicity of `C[C@H]1C[C@@H](O)CC(C)(C)C1` inactive

Please give the documented activity change, negative = cytotoxicity of C=COCC1CCC(CO)CC1 (centres undefined) inactive

Please give the documented activity change, negative = cytotoxicity of `CC(=O)OCC(CCn1cnc2cnc(N)nc21)COC(C)=O` inactive

Please give the documented activity change, negative = cytotoxicity of CO[Si](CCCOCC1CO1)(OC)OC (centres undefined) inactive

Please give the documented activity change, negative = cytotoxicity of `Cc1cccn2c(=O)c(-c3nnn[nH]3)cnc12` inactive
